- target system: Dual specificity mitogen-activated protein kinase kinase 1 (Homo sapiens)
- applied conditions: at 1 µM
- Description: Millipore: Percentage of residual kinase activity of MAP2K1 at 1uM relative to control. Control inhibitor: Phosphoric acid* at 0.3uM. Buffer: 50 mM Tris pH 7.5, 0.2 mM EGTA, 0.1% ?-mercaptoethanol, 0.01% Brij-35
metric name: residual activity

{"columns": ["smiles str", "metric name", "measured"],
 "data": [
  ["O=C(Nc1cccc(Nc2nccc(Nc3cccc(C(F)(F)F)c3)n2)c1)C1CC1", "residual activity", "106%"],
  ["COc1ccc(OC)c2c(=S)c3ccccc3[nH]c12", "residual activity", "114%"],
  ["O=C(O)c1ccc2c3c1cccc3c(=O)n1c3ccccc3nc21", "residual activity", "94%"],
  ["O=c1cc(-c2cccc3c2Sc2ccccc2S3)oc(N2CCOCC2)c1", "residual activity", "111%"],
  ["Cc1ccc(NC2=CC(=O)c3sc(C)nc3C2=O)cc1", "residual activity", "99%"],
  ["COc1cc2ncnc(N3CCN(C(=O)Nc4ccc(Oc5ccccc5)cc4)CC3)c2cc1OC", "residual activity", "115%"],
  ["CNc1cc2c(Nc3cccc(Br)c3)ncnc2cn1", "residual activity", "84%"],
  ["N#Cc1cnc2cnc(NCc3cccnc3)cc2c1Nc1ccc(F)c(Cl)c1", "residual activity", "91%"],
  ["O=C1NC(=O)/C(=C\\c2ccc3nccnc3c2)S1", "residual activity", "108%"],
  ["Nc1cccc(-c2cc3c(Oc4cccc(O)c4)ncnc3[nH]2)c1", "residual activity", "94%"],
  ["CC[n+]1c(/C=C/N(C)c2ccccc2)n(-c2ccccc2)c2ccc(-c3nc4ccccc4s3)cc21", "residual activity", "138%"],
  ["Oc1ccc(Nc2nc(-c3ccc(Cl)cc3)cs2)cc1", "residual activity", "106%"],
  ["COc1cccc(-c2cc(=O)c3ccccc3o2)c1N", "residual activity", "103%"]
]}
